result-type: melting point

Example molecules with recorded melting point:
molecule	melting point
O=Cc1cc([N+](=O)[O-])ccc1Sc1ccccc1	96 to 100 °C
O=C(Oc1ccccc1)c1cc(Cl)c2ccccc2c1O	102 to 104 °C
CC(C)Cn1cnc2c(Br)c(NC3=NCCN3)ccc21	226 to 227 °C
CC(=O)Nc1ccc(Cl)c2c1C(=O)C(NC(C)=O)CN2C(C)=O (stereo not given)	206 to 210 °C

Pending molecule:
Task: # get_value(readout='melting point', item= `CCOC(=O)c1nnc(N2N=C(c3ccc([N+](=O)[O-])c(C)c3)c3cc4c(cc3C[C@H]2C)OCO4)s1` )
Result: 115 to 118 °C

----------
Readings of melting point for the listed compounds

compound	melting point
O=C1c2ccccc2C(=O)N1Cc1cnc2n1-c1ccc(Cl)cc1C(c1ccccc1Cl)=NC2	218 to 220 °C

Task: # get_value(readout='melting point', item= `O=c1cc(-c2ccncc2)nc2n1CCCN2` )
Result: 219 °C

Task: Consider next the compound `N#Cc1cnc2sc(-c3ccccc3)cc2c1Cl` in the same way.
Result: 202 to 204 °C

Task: Consider next the compound `CC(C)CCS(=O)(=O)NC(=O)/C=C/c1cc(OC2CCOCC2)nn1Cc1ccc(C(F)(F)F)cc1Cl` in the same way.
Result: 150 to 152 °C

----------
result-type: melting point

Example molecules with recorded melting point:
molecule	measured-value
CCCCCCCCCCCCCCCCCCOc1cccc(C(=O)OC)c1O	57 to 60 °C
O=C1CCC(N2C(=O)c3cccc(NC(=O)c4cccc([N+](=O)[O-])c4)c3C2=O)C(=O)N1 (stereo not given)	245 to 247 °C
CC(C)(C)OC(=O)Nc1ccc(-c2ccccc2F)cc1N	100 to 103 °C
CC(C)(C)NC(=O)N1CCn2c(Cl)c(-c3ccccc3)c(C(N)=O)c2C1	192 to 195 °C
Cc1cc(C)cc(Sc2c(CO)nc(C)n2C)c1	198 to 199 °C
C=CCOc1ccccc1-c1nc2c(CCC)nn(C)c2c(=O)[nH]1	116 to 119 °C

Task: # get_value(readout='melting point', item= `CC(C)n1nc(-c2cc(C#N)cnc2-c2ccccc2)ccc1=O` )
Result: 133 to 135 °C

Task: Consider next the molecule `CCOC(=O)c1ccc(NC(=O)Oc2ccccc2)cc1` in the same way.
Result: 156 to 162 °C

Task: Consider next the molecule O=C1Nc2ccccc2N2CCN(CCCc3ccncc3)CC12 (stereo not given) in the same way.
Result: 188 to 190 °C

Task: Consider next the molecule `CCOC(=O)c1nnc(-c2cc3cc(Oc4ccc(S(C)(=O)=O)cc4)cc(OCc4ccccc4)c3[nH]2)s1` in the same way.
Result: 194 to 195 °C

----------
Readings of melting point for the listed compounds

compound	melting point
COC(=O)[C@H](O)Cc1ccccc1	46 to 47 °C
CCN(CC)c1ccc(-c2cc(-c3ccc(C(=O)O)cc3)ccc2CCCNC2CCCC2)cc1C(C)(C)C	255 °C
COc1ccc(NCCOc2ccc3ccccc3c2)cc1	92 °C
O=Cc1cc(Oc2c(Cl)cc(-n3ncc(=O)[nH]c3=O)cc2Cl)ccc1O	146 to 150 °C
COc1ccc(C(=O)c2oc3cccc(O)c3c2C)cc1	192 to 195 °C

Task: # get_value(readout='melting point', item= `CC(C)c1cccc(C(C)C)c1NC(=O)CN(CC1(Nc2ccccc2)CCCCC1)C(=O)OC(C)(C)C` )
Result: 125 to 127 °C

Task: Consider next the compound `NC(=O)c1nnn(Cc2ccccc2Br)c1N` in the same way.
Result: 211 to 213 °C

Task: Consider next the compound `O=C(O)CCc1cn(Cc2ccc(OCc3noc(-c4ccccc4)n3)cc2)nc1-c1ccccc1` in the same way.
Result: 166 to 167 °C

Task: Consider next the compound `COc1cc(I)ccc1-c1ccccc1` in the same way.
Result: 57 °C

Task: Consider next the compound `Fc1ccc(-c2ccc3[nH]ccc3c2)cc1` in the same way.
Result: 71 to 74 °C

----------
Readings of melting point for the listed molecules

Example molecules with recorded melting point:
molecule	melting point
COc1cc(OC)c2c(=O)cc(-c3ccc(C(F)(F)F)cc3)oc2c1C1CCN(C)C1CO (stereo not given)	114 to 115 °C
CCc1c2n(c3ccccc13)C(=O)C(Cc1nc[nH]c1C)CC2 (stereo not given)	222 to 224 °C
O=C(O)c1csc(Nc2ccc(C(F)(F)F)cc2)n1	255 to 259 °C
COc1ccc(-c2cnc(N)c(SC)n2)cc1	139 to 140 °C
OCCCCCCCCCCCCCCCCc1c[nH]c2ccccc12	79 to 80 °C
CSc1nn2c(O)cc(C)nc2c1S(=O)(=O)c1ccccc1	> 220 °C
CS(=O)(=O)Nc1cc(-c2nc3ccccn3c2Br)c(F)cc1F	202 °C
CC(C)CC(NC(=O)C(NCc1ccccc1)C(C)C)C(=O)NC(CCCCNC(=O)OCc1ccccc1)C(=O)Oc1cccc2ccccc12 (stereo not given)	153 to 156 °C

Task: # get_value(readout='melting point', item= `Nc1nc2ccccc2c2c1ncn2CCOCc1cc2ccccc2o1` )
Result: 201 to 203 °C

Task: Consider next the molecule CC(C)(C)C1=CC(C=O)(C(C)(C)C)NN1 (stereo not given) in the same way.
Result: 216 to 219 °C

----------
result-type: melting point

Example molecules with recorded melting point:
molecule	melting point
CCCSc1cc(S(N)(=O)=O)c(N)cc1Cl	109 to 111 °C
O=C(C1CCCCC1)N1CC(=O)N(CCc2ccccc2)C(O)C1 (stereo unspecified)	134 °C
COC(=O)c1cc2c(O)c(C(=O)NCc3ccc(Cl)cc3)cnc2s1	238 to 240 °C

Task: # get_value(readout='melting point', item= CCCCCC1=CCC(c2cc(F)c(C#N)c(F)c2)C=C1 (stereo unspecified) )
Result: 59 °C

Task: Consider next the molecule CN1CCC(c2nc3ccccc3[nH]2)C1 (stereo unspecified) in the same way.
Result: 189 to 193 °C

Task: Consider next the molecule `Clc1ccc(-c2cc(C3CCN(CCCc4ccccc4)CC3)n[nH]2)cc1` in the same way.
Result: 165 to 167 °C

----------
Readings of melting point for the listed compounds

compound	measured-value
Cc1cc(O)c(SCc2cccc3ccccc23)c(=O)o1	170 °C
Nc1ccccc1NC(=O)CCN1CCN(c2cccc(C(F)(F)F)c2)CC1	194 to 196 °C
CCN(CC)c1ccc(N2C[C@H](CNC(=O)c3ccc(Cl)s3)OC2=O)cc1	181 °C

Pending compound:
Task: # get_value(readout='melting point', item= CC(Cc1c[nH]c2ccccc12)C1CCNCC1 (stereo not given) )
Result: 150 °C

----------
Readings of melting point for the listed molecules

molecule	melting point
O=C1c2ccccc2C(=O)N1Cc1ccc(Br)nc1	130 to 131 °C
CS(=O)(=O)OC1CCc2ccccc2C1 (stereo unspecified)	60 to 62 °C

Pending molecule:
Task: # get_value(readout='melting point', item= `NS(=O)(=O)NCCc1ccccc1` )
Result: 61.8 to 62 °C

----------
result-type: melting point

Example compounds with recorded melting point:
compound	melting point
COc1c(Cl)ccc(-c2nc(OC)c3c(ncn3C)n2)c1F	191 to 192 °C
CCn1nc(-c2ccccc2)c(C(C)=O)c(Nc2cccc3cn[nH]c23)c1=O	263 to 264 °C
COc1ccc2[nH]c3c(c4c(c5c6cc(OC)ccc6n(C)c35)C(=O)N(C)C4=O)c2c1	> 330 °C
COc1ccc(-c2oc3c(C(=O)O)cccc3c(=O)c2C)cc1	266 to 267 °C
O[C@@H](CNCC1CCN(CCC(F)(F)F)CC1)COc1ccc(Br)c2[nH]c3ccccc3c12	79 °C

Pending compound:
Task: # get_value(readout='melting point', item= COC(=O)c1ccc(OCCNC(=O)C2Cc3ccccc3N2S(=O)(=O)c2ccc(-c3ccc(F)cc3)cc2)c(Cl)c1 (stereo unspecified) )
Result: 84 to 90 °C

----------
Readings of melting point for the listed compounds

Example compounds with recorded melting point:
compound	melting point
COC(NC(C)=O)(C(=O)O)C(Br)Br (stereo unspecified)	143 to 144 °C
COc1ccc2c(c1)c(Cc1cc(=O)n(-c3ccc(C)cc3)[nH]1)c(C)n2C(=O)c1ccc(Cl)cc1	131 to 133 °C
Cn1cc(C(=S)NCc2ccc(Cl)cc2)c(=O)c2cc(I)ccc21	153 to 155 °C

Task: # get_value(readout='melting point', item= `C[C@H]1C[C@@](O)(c2cccc(Sc3ccc4c(c3)CCC(=O)N4)c2)CCO1` )
Result: 180 to 181 °C

Task: Consider next the compound `Cc1nc(Cl)c2c3c(oc2n1)CCCC3` in the same way.
Result: 42.4 to 43.8 °C

Task: Consider next the compound `COc1ccc(C=Cc2oc3ccc(Br)cc3c2C(C)=O)cc1` in the same way.
Result: 163 to 165 °C

Task: Consider next the compound `Cc1ccc(Cn2c(=O)c3c(N4CCN(C)CC4)cc(Cl)cc3n(Cc3ccccc3)c2=O)cc1` in the same way.
Result: 92 to 97 °C

Task: Consider next the compound CON=Cc1ccc(N2C(=O)C(O)=C(C(=O)c3ccc(OC)cc3)C2c2ccccc2)cc1 (stereo unspecified) in the same way.
Result: 226 to 229 °C

Task: Consider next the compound `NC(=O)c1nnn(Cc2ccc(Cl)c(Cl)c2)c1N` in the same way.
Result: 221 to 222 °C

Task: Consider next the compound Cc1ccc(S(=O)(=O)OCC2COc3ccccc3C2)cc1 (stereo unspecified) in the same way.
Result: 83 to 84 °C

Task: Consider next the compound `Cc1c(C(=O)NCc2ccc3c(Br)c(OCc4nnn[nH]4)ccc3c2)oc2ccccc12` in the same way.
Result: 212 to 215 °C

Task: Consider next the compound `N#Cn1nc(-c2ccccc2)c(=O)cc1I` in the same way.
Result: 135 to 137 °C

Task: Consider next the compound `COC(=O)C1=Cc2cc(Br)ccc2N(C(=O)OC)CC1` in the same way.
Result: 135 to 136 °C
